Attribution: PubChem BioAssay (NCI)

Test system: ACHN renal
Assay Protocol: NCI-60 one-dose screen, 48 h (100 = growth as untreated, 0 = no growth, -100 = all killed)
Condition Label: 10 µM unless noted
The panel holds about 83,000 compounds, 20% with a hit somewhere; the sample as a whole holds those more often. Activity calls are given as the source filed them. Rule for the calls: active = growth percent below 10; inactive = the rest.
Observed Property: growth

Solved cases below.
COC(=O)N[C@H]1CCc2c(Br)c(OC)c(OC)c(OC)c2-c2ccc(SC)c(=O)cc21
26.7% (inactive)
C[C@]12CCc3nc(Nc4ccccc4F)sc3C1=CC[C@@H]1[C@@H]2CC[C@]2(C)C(=O)CC[C@@H]12
9.9% (active)
O=C(O)CNC(=O)C(Cl)(Cl)Cl
92.7% (inactive)
O=C(CC1(O)C(=O)N(Cc2ccccc2)c2ccc(F)cc21)c1ccc(C(=O)NCC2CCC3(CC2)OOC2(CCCCC2)OO3)cc1 (configuration not stated)
-80.7% (active)
CCOC(=O)[C@@H](C)C[C@H](Cc1ccccc1)NC(=O)c1nc([C@@H](C[C@H](C(C)C)N(C)C(=O)[C@@H](NC(=O)[C@H]2CCCCN2C)C(C)C)OC(C)=O)sc1CCOCc1ccccc1
-22% (active)
O=C(c1ccccc1O)c1[nH]c(Cl)c(Cl)c1-n1c(C(=O)c2ccccc2O)cc(Cl)c1Cl
-9.76% (active)
Cn1cc(-c2csc(-c3cn(CCCCN4CCCCC4)c4ccccc34)n2)c2cccnc21
-96.4% (active)
C/C=C(\C)C(=O)O[C@@H]1C(O)[C@H]2OC(COC(=O)CCC(=O)CCCCCC[C@H](CCCCC)O[C@@H]3OC(C)[C@H](OC(C)=O)C(O)[C@H]3O2)[C@H]1OC(=O)/C=C/c1ccccc1 (some centres not stated)
12% (inactive)

Lab note: Cc1cc(N(CCCl)CCCl)ccc1C=Nc1cccnc1 gave growth of 48.3% (inactive)

Lab note: COc1ccc(/C=C\c2cc(OC)c(OC)c(OC)c2)cc1NC(=O)/C=C/c1ccc(OC)c(OC)c1 gave growth of 42% (inactive)
